Field: IC50. Provide a value for each of the molecules that follow.
# Tested on: SH-SY5Y
# assay.method.text: Cytotoxicity against human SH-SY5Y cells after 72 hrs by MTT assay
# Type: functional, cell-based
Give your result in µM as a bare value.

Exercise: Which IC50 is reported with SH-SY5Y for this entry: COc1ccc(-c2coc3cc(OCc4ccc(C)cc4)ccc3c2=O)cc1N(CCCl)CCCl ?
Solution: 49.9

Exercise: Which IC50 is reported with SH-SY5Y for this entry: C=C(C)COc1ccc2c(=O)c(-c3ccc(OC)c(N(CCCl)CCCl)c3)coc2c1 ?
Solution: 10.8

Exercise: Which IC50 is reported with SH-SY5Y for this entry: COc1ccc(-c2coc3cc(OCCc4ccccc4)ccc3c2=O)cc1N(CCCl)CCCl ?
Solution: 3.84

Exercise: Which IC50 is reported with SH-SY5Y for this entry: CCC(C)Oc1ccc2c(=O)c(-c3ccc(OC)c(N(CCCl)CCCl)c3)coc2c1 (stereo not given) ?
Solution: 3.58

Exercise: Which IC50 is reported with SH-SY5Y for this entry: COc1ccc(-c2coc3cc(OCCC(C)C)ccc3c2=O)cc1N(CCCl)CCCl ?
Solution: 10.4

Exercise: Which IC50 is reported with SH-SY5Y for this entry: CCCOc1ccc2c(=O)c(-c3ccc(OC)c(N(CCCl)CCCl)c3)coc2c1 ?
Solution: 7.89

Exercise: Which IC50 is reported with SH-SY5Y for this entry: CCCCOc1ccc2c(=O)c(-c3ccc(OC)c(N(CCCl)CCCl)c3)coc2c1 ?
Solution: 16.3

Exercise: Which IC50 is reported with SH-SY5Y for this entry: COc1ccc(-c2coc3cc(OC4CCCCCC4)ccc3c2=O)cc1N(CCCl)CCCl ?
Solution: 2.08

Exercise: Which IC50 is reported with SH-SY5Y for this entry: C=CCOc1ccc2c(=O)c(-c3ccc(OC)c(N(CCCl)CCCl)c3)coc2c1 ?
Solution: 4.51

Exercise: Which IC50 is reported with SH-SY5Y for this entry: COc1ccc(-c2coc3cc(OC4CCCCC4)ccc3c2=O)cc1N(CCCl)CCCl ?
Solution: 4.44
